Data origin, for the record: ChEMBL document CHEMBL5303304

Measured Growth Rate, listed per entry for reference.
Tested on: Fibroblast
Test: Incucyte cell viability with human fibroblast; note: unitless GR value; below 1 slowed growth and below 0 cell loss
Format: toxicity, cell-based
Details: 12 h, 10 µM, compound concentration 10 uM, replicate number 1
Please give the numeric answer without any surrounding text.

Example compounds with recorded Growth Rate:
{"columns": ["compound", "endpoint result"],
 "data": [
  ["Clc1cccc(Nc2nccc(NCCCN3CCOCC3)n2)c1", 0.59],
  ["O=C(O)CCCCCC[C@@H]1C(=O)NC(=O)N1CCC(O)C1CCCCC1 (stereo partly drawn)", 0.61]
]}

Next compound, please.
Request: Recall and state the measured Growth Rate for CCN(CC)C/C=C/C(=O)Nc1cc2c(Nc3ccc(F)c(Cl)c3)ncnc2cc1OCC1CC1 .
Result: 0
